src = patent US20250215039A1

Test system: cancer cell lines
Experiment: Cancer cell proliferation activity (CellTiterGlo, 72 h)
Type: cell-based
Conditions: Homo sapiens, SW-620, 72 h, SW620 cell line (colon), 72 h; read-out: IC50
Reported values of IC50 for individual entries
READOUT_NAME: IC50 (µM)

MOLECULE	READOUT_NAME	UNITS_OF_MEASURE	VALUE_RELATION_SIGN	READOUT_NUMBER
COC[C@]1(CO)O[C@@H](n2cnc3c(N)nc(F)nc32)C[C@@H]1O [Cpd. No. 140]	IC50	µM	=	0.54
Nc1ccn([C@@H]2O[C@H](CO)[C@@H](O)C2(F)F)c(=O)n1 [gemcitabine, reference compound]	IC50	µM	=	0.003
CC[C@]1(CO)O[C@@H](n2cc(F)c(N)nc2=O)C[C@@H]1O [Cpd. No. 2]	IC50	µM	>	50
CC(C)C[C@]1(CO)O[C@@H](n2cnc3c(N)nc(F)nc32)C[C@@H]1O [Cpd. No. 133]	IC50	µM	=	3.44
CCC[C@]1(CO)O[C@@H](n2cnc3c(N)nc(F)nc32)C[C@@H]1O [Cpd. No. 129]	IC50	µM	=	0.36
CC[C@]1(CO)O[C@@H](n2cnc3c(N)nc(F)nc32)[C@H](O)[C@@H]1O [Cpd. No. 173]	IC50	µM	=	0.09
C[C@]1(CO)O[C@@H](n2cc(F)c(=O)[nH]c2=O)C[C@@H]1O [Cpd. No. 105]	IC50	µM	=	0.39
O=c1[nH]c(=O)n([C@H]2C[C@H](O)[C@](CO)(CF)O2)cc1F [Cpd. No. 112]	IC50	µM	=	1.71
CC[C@]1(CO)O[C@@H](n2cnc3c(N)nc(F)nc32)C[C@@H]1O [Cpd. No. 1]	IC50	µM	=	0.73
C=C[C@]1(CO)O[C@@H](Nc2[nH]c(=O)ncc2Br)C[C@@H]1O [Cpd. No. 3]	IC50	µM	>	50
Cc1cn([C@H]2C[C@H](O)[C@@](C#N)(CO)O2)c(=O)[nH]c1=O [Cpd. No. 123]	IC50	µM	>	50
N#C[C@]1(CO)O[C@@H](n2cc(F)c(N)nc2=O)C[C@@H]1O [Cpd. No. 6]	IC50	µM	>	50
C[C@]1(CO)O[C@@H](n2cnc3c(N)nc(F)nc32)C[C@@H]1O [Cpd. No. 126]	IC50	µM	=	0.57
Nc1nc(F)nc2c1ncn2[C@H]1C[C@H](O)[C@](CO)(CF)O1 [compound 150]	IC50	µM	=	3.12
C[C@]1(CO)O[C@@H](n2cc(F)c(N)nc2=O)C[C@@H]1O [Cpd. No. 4]	IC50	µM	=	0.24
